Recorded DPP4 activity in library screen, Exp 1 by entry
# Target Desc: DPP4 (Homo sapiens)
# Test Protocol: DPP4 activity assay (DPP4 inhibitor screening assay kit, Cayman)
# Type: biochemical
# Set-up: purchased Cayman Chemical, Ann Arbor, MI, USA
# Condition: 10 µM; control mean 100.0; Figure 1A raw data
# answer = number (no unit)

Observe how each entry below is paired with its result.
[[record]]
compound = "O=c1c(O)c(-c2ccc(O)c(O)c2)oc2cc(O)cc(O)c12 [Quercetin Dihydrate]"
observed_result = 59.9

[[record]]
compound = "COc1cc(CCC(C)=O)ccc1O"
observed_result = 87.8

[[record]]
compound = "COc1ccc([C@@H]2CC(=O)c3c(O)cc(O[C@@H]4O[C@H](CO)[C@@H](O)[C@H](O)[C@H]4O[C@@H]4O[C@@H](C)[C@H](O)[C@@H](O)[C@H]4O)cc3O2)cc1O"
observed_result = 93.8

[[record]]
compound = "CC(=O)c1c(O)c(C)c(O)c2c1OC1=CC(=O)C(C(C)=O)C(=O)C12C (single isomer, unassigned; (+)) [(+)-Usniacin]"
observed_result = 88.7

[[record]]
compound = "CC(C)(O)[C@H]1CC[C@@](C)([C@H]2[C@@H](O)C[C@@]3(C)[C@@H]4C[C@H](O[C@@H]5O[C@H](CO)[C@@H](O)[C@H](O)[C@H]5O)[C@H]5C(C)(C)[C@@H](O[C@@H]6OC[C@@H](O)[C@H](O)[C@H]6O)CC[C@@]56C[C@@]46CC[C@]23C)O1 [Astragaloside A]"
observed_result = 103.8

[[record]]
compound = "COc1ccc2cc3[n+](cc2c1OC)CCc1cc2c(cc1-3)OCO2.[Cl-] [Berberine HCl]"
observed_result = 52.4

[[record]]
compound = "C[C@@H]1O[C@@H](O[C@H]2[C@H](Oc3cc(O)c(C(=O)CCc4ccc(O)cc4)c(O)c3)O[C@H](CO)[C@@H](O)[C@@H]2O)[C@H](O)[C@H](O)[C@H]1O [Naringin Dihydrochalcone]"
observed_result = 84.3

[[record]]
compound = "O=C([O-])C(O)Cc1ccc(O)c(O)c1.[Na+] (centres unmarked) [Sodium Danshensu]"
observed_result = 95.8

[[record]]
compound = "CCC1=C[C@@H]2CN3CCc4c([nH]c5ccccc45)[C@@](C(=O)OC)(C2)[C@@H]13"
observed_result = 117.2

[[record]]
compound = "COc1ccc([C@@H]2CC(=O)c3c(O)cc(O[C@@H]4O[C@H](CO[C@@H]5O[C@@H](C)[C@H](O)[C@@H](O)[C@H]5O)[C@@H](O)[C@H](O)[C@H]4O)cc3O2)cc1O"
observed_result = 97.2


**Q:** Return DPP4 activity in library screen, Exp 1 for the following compound: CC1(C)[C@@H](O[C@H]2O[C@H](C(=O)O)[C@@H](O)[C@H](O)[C@H]2O[C@@H]2O[C@H](C(=O)O)[C@@H](O)[C@H](O)[C@H]2O)CC[C@]2(C)[C@H]3C(=O)C=C4[C@@H]5C[C@@](C)(C(=O)O)CC[C@]5(C)CC[C@@]4(C)[C@]3(C)CC[C@@H]12 [Ammonium Glycyrrhizinate]
**A:** 83.3

---

# Target Desc: DPP4 (Homo sapiens, UniProt P27487)
# Sequence (P27487 whole entry): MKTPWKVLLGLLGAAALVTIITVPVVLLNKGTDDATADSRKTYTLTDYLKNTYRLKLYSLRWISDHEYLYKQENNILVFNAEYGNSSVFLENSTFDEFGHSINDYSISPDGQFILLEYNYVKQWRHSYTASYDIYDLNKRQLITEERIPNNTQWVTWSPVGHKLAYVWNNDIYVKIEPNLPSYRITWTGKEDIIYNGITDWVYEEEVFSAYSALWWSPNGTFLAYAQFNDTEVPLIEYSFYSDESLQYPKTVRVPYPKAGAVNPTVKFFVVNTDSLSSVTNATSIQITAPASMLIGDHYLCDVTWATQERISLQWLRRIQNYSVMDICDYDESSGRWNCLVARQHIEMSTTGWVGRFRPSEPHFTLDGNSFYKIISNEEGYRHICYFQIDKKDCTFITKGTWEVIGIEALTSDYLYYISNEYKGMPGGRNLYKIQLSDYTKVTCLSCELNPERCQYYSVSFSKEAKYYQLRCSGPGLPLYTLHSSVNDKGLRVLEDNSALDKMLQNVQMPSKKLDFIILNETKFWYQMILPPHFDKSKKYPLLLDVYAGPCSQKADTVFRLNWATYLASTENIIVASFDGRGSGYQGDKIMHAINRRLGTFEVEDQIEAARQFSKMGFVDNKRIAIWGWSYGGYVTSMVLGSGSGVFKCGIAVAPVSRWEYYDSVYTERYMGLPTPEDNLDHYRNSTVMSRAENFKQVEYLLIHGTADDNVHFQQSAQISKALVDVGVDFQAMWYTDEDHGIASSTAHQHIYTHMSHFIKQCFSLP
# Test Protocol: DPP4 activity assay (DPP4 inhibitor screening assay kit, Cayman);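 note: fluorescence read at excitation 360 nm and emission 460 nm after the enzyme reaction ran 30 min at 37 °C in a 96-well plate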
# Type: biochemical
# Parameters: purchased Cayman Chemical, Ann Arbor, MI, USA
# Condition: 0.5 h, 10 µM; control mean 100.0; Figure 1A raw data; read-out: DPP4 activity in library screen, Exp 1
Observation Type: remaining activity at 10 µM (%)
Answer format: numeric, % implied, no suffix.

Below, 2 molecules whose answers are already recorded.
[[record]]
molecule = "O=C1Nc2ccccc2/C1=C1/Nc2ccccc2C1=O [Indirubin]"
target_desc = "DPP4 (Homo sapiens, UniProt P27487)"
measurement_units = "%"
observed_result = 53.9

[[record]]
molecule = "O=C(O)c1cc(=O)[nH]c(=O)[nH]1 [Orotic acid (6-Carboxyuracil), Orotic acid]"
target_desc = "DPP4 (Homo sapiens, UniProt P27487)"
measurement_units = "%"
observed_result = 83.5


**Q:** Give the reported remaining activity at 10 µM for this molecule. C[C@@H]1CC[C@@]2(OC1)O[C@H]1C[C@H]3[C@@H]4CC=C5C[C@@H](O[C@@H]6O[C@H](CO)[C@@H](O[C@@H]7O[C@@H](C)[C@H](O)[C@@H](O)[C@H]7O)[C@H](O)[C@H]6O[C@@H]6O[C@@H](C)[C@H](O)[C@@H](O)[C@H]6O)CC[C@]5(C)[C@H]4CC[C@]3(C)[C@H]1[C@@H]2C [Dioscin]
**A:** 100

**Q:** Supply remaining activity at 10 µM value. Item: C[C@@H]1O[C@@H](OC[C@H]2O[C@@H](Oc3c(-c4ccc(O)c(O)c4)oc4cc(O)cc(O)c4c3=O)[C@H](O)[C@@H](O)[C@@H]2O)[C@H](O)[C@H](O)[C@H]1O [Rutin]
**A:** 78.7

**Q:** Return remaining activity at 10 µM for the following molecule: CN(C)Cc1c[nH]c2ccccc12 [Gramine]
**A:** 97.6

**Q:** Look up and report measured remaining activity at 10 µM for this entry: O=C(O[C@@H]1Cc2c(O)cc(O)cc2O[C@@H]1c1cc(O)c(O)c(O)c1)c1cc(O)c(O)c(O)c1 [(-)-Epigallocatechin Gallate]
**A:** 100

**Q:** Check the records and state remaining activity at 10 µM for C=CCc1ccc(O)c(-c2cc(CC=C)ccc2O)c1 [Magnolol]
**A:** 97.6

**Q:** Tell me measured remaining activity at 10 µM for O=C(/C=C/c1ccc(O)c(O)c1)O[C@@H]1C[C@](O)(C(=O)O)C[C@@H](O)[C@H]1O [Chlorogenic Acid] please.
**A:** 71.3

**Q:** Answer with the recorded remaining activity at 10 µM for the molecule listed here: COc1cc2c(cc1OC)[C@@H]1Cc3ccc(OC)c(OC)c3CN1CC2 [Rotundine]
**A:** 103

**Q:** State its remaining activity at 10 µM: COc1ccc(-c2cc(=O)c3c(O)cc(O)cc3o2)cc1O [Diosmetin]
**A:** 77.2

**Q:** Return remaining activity at 10 µM (reported value) for this molecule: C[C@H]1[C@H](C)CC[C@]2(C(=O)O)CC[C@]3(C)C(=CC[C@@H]4[C@@]5(C)CC[C@H](O)C(C)(C)[C@@H]5CC[C@]43C)[C@H]12 [Ursolic Acid]
**A:** 85.1

**Q:** Write down remaining activity at 10 µM measured for item COc1ccc([C@@]23Oc4cc(OC)cc(OC)c4[C@]2(O)[C@H](O)[C@H](C(=O)N(C)C)[C@H]3c2ccccc2)cc1 [Rocaglamide]
**A:** 100

**Q:** Dear colleague, please send me the reported remaining activity at 10 µM for COc1ccc2ccc(=O)oc2c1CC=C(C)C [Osthole] when you can.
**A:** 93.1

---

# Target Desc: DPP4 (Homo sapiens)
# Test Protocol: DPP4 activity assay (DPP4 inhibitor screening assay kit, Cayman)
# Assay type: biochemical
# Set-up: purchased Cayman Chemical, Ann Arbor, MI, USA
# Condition: 0.5 h, 10 µM; control mean 100.0; Figure 1A raw data; read-out: DPP4 activity in library screen, Exp 2
Catalogue of remaining activity at 10 µM readings, one per entry.
Dear colleague, please return just the value in %, with no unit written.

[[record]]
compound = "O=C(O)c1cc(=O)[nH]c(=O)[nH]1 [Orotic acid (6-Carboxyuracil), Orotic acid]"
observed_result = 88

[[record]]
compound = "O=C1c2c(O)cccc2C([C@@H]2O[C@H](CO)[C@@H](O)[C@H](O)[C@H]2O)c2cc(CO)cc(O)c21 (stereo partly shown) [Aloin]"
observed_result = 70.4

[[record]]
compound = "O=[N+]([O-])c1ncc[nH]1 [Azomycin]"
observed_result = 78.5


Read the next record carefully.
**Q:** Would you please give the reported remaining activity at 10 µM of CC[C@@]1(O)C(=O)OCc2c1cc1n(c2=O)Cc2cc3cc(O)ccc3nc2-1 [(S)-10-Hydroxycamptothecin] with DPP4 (Homo sapiens)?
**A:** 77.6

---

# Target Desc: UniProt:P27487
# Test Protocol: DPP4 activity assay (DPP4 inhibitor screening assay kit, Cayman)
# Format: biochemical
# Design: purchased Cayman Chemical, Ann Arbor, MI, USA
# Condition: 0.5 h, 10 µM; control mean 100.0; Figure 1A raw data; read-out: DPP4 activity in library screen, Exp 1
Observation Type: remaining activity at 10 µM (%)
Numeric only. Scale: %

Consider the worked cases shown below.
[[record]]
cpd_smiles = "C[C@@H]1O[C@@H](OC[C@H]2O[C@@H](Oc3c(-c4ccc(OCCO)c(OCCO)c4)oc4cc(OCCO)cc(O)c4c3=O)[C@H](O)[C@@H](O)[C@@H]2O)[C@H](O)[C@H](O)[C@H]1O"
measurement_units = "%"
observed_result = 69.8

[[record]]
cpd_smiles = "COc1ccc(-c2oc3c(CC=C(C)C)c(O[C@@H]4O[C@H](CO)[C@@H](O)[C@H](O)[C@H]4O)cc(O)c3c(=O)c2O[C@@H]2O[C@@H](C)[C@H](O)[C@@H](O)[C@H]2O)cc1"
measurement_units = "%"
observed_result = 76


Could you now consider this next compound?
**Q:** Give the reported remaining activity at 10 µM for this compound. N#C[C@H](O[C@@H]1O[C@H](CO[C@@H]2O[C@H](CO)[C@@H](O)[C@H](O)[C@H]2O)[C@@H](O)[C@H](O)[C@H]1O)c1ccccc1
**A:** 96.2

Every entry's value here was drawn from paper PMC5428354.
